Test system: ACHN renal
assay procedure: NCI-60 one-dose screen, 48 h (100 = growth as untreated, 0 = no growth, -100 = all killed)
test parameters: 10 µM unless noted
Compounds without any hit were thinned out: in the full panel of roughly 83,000, 20% have a hit.
Entry flag: criterion met if growth reaches 60%; criterion not met if it does not.

>>> class_name("O=C1C(Cl)=C(N=Nc2c(Cl)c(O)c3ccccc3c2O)C(=O)c2ccccc21")
"criterion met"
>>> class_name("O=C(Nc1ccc(Cl)cc1Cl)Nc1ccc(-c2cccnc2)cc1N1CCC(CO)CC1")
"criterion not met"

Is reported growth greater than or equal to 60% here: COc1cccc(/C=C2\COc3ccc(O)c(O)c3C2=O)c1OC
criterion not met

Please check the record C[C@]12CC[C@@H]3c4ccc(O)c([N+](=O)[O-])c4CC[C@H]3[C@@H]1CC[C@@H]2NS(=O)(=O)c1ccc(C(F)(F)F)cc1 and state if its growth is at or above 60%.
criterion not met

Is it the case that CCC(O)C(C)(C)C (configuration not stated) has growth reaching or exceeding 60%?
criterion met

Record Cc1cc(NCCCNc2ccnc3cc(Cl)ccc23)nc(N2CCN(C)CC2)n1 ; criterion: growth no lower than 60%. Met?
criterion not met

Please tell me: is the molecule O=C(CSc1nc2c(n1Nc1ccccc1)-c1ccccc1SC2)Nc1nc(-c2ccc(Cl)cc2)cs1 at or over 60% in terms of growth?
criterion met

Say whether O=C(CSc1nnc(Nc2ccccc2)s1)NCCc1ccc(F)cc1 shows growth of 60% or more.
criterion met

growth >= 60% for COc1ccc2nc(NC(=O)c3cc(-c4ccc(F)cc4)n4nc(-c5ccccc5)cc4n3)sc2c1 ?
criterion met

Evaluate Cc1cc(CC(=O)O)n(C)c1C(=O)c1ccc(Cl)cc1 : growth at minimum 60%?
criterion met

====

Tested on: HS 578T breast
assay procedure: NCI-60 one-dose screen, 48 h (100 = growth as untreated, 0 = no growth, -100 = all killed)
test parameters: 10 µM unless noted
The panel holds about 83,000 compounds, 20% with a hit somewhere; the sample as a whole holds those more often. The source made the active and inactive calls. How the source made its calls: active means growth percent below 10; inactive means the rest.
measure name: growth

# annotated cases, reported growth shown
>>> val("ClC1=C(Cl)C(Cl)=C(Cl)C1=C/C=C/c1ccccc1")
"-5.58% (active)"
>>> val("COc1ccc2nc3cc(Cl)ccc3c(N3CCN(c4ccnc(Nc5ccc(F)cc5)n4)CC3)c2c1")
"94.2% (inactive)"
>>> val("O=C(NN(C(=O)c1ccccc1)c1cccs1)c1ccccc1")
"104% (inactive)"
>>> val("Nc1ccc(C2=Nc3cccc4cccc(c34)S2)cc1")
"92.2% (inactive)"

Could you now look at the following compound, please?
I would be grateful if you could share the reported growth for Nc1ccc2c3c(cccc13)-c1ccccc1-2 .
89.2% (inactive)

====

System: OVCAR-5 ovarian
assay procedure: NCI-60 one-dose screen, 48 h (100 = growth as untreated, 0 = no growth, -100 = all killed)
test parameters: 10 µM unless noted
The panel holds about 83,000 compounds, 20% with a hit somewhere; the sample as a whole holds those more often.
measure name: growth (%)
Just the number please, in %, no unit attached.

A selection of reference data follows.
>>> val("CCOC(=O)c1cc(-c2cccnc2)nc2c(Cl)cc(Cl)cc12")
92
>>> val("COc1cc(C2NC(c3ccc(Cl)cc3)C(C)/C(=N/NC(N)=S)C2C)cc(OC)c1OC (centres undefined)")
98
>>> val("COc1cc2c(cc1OCCCOc1ccc(-c3cc4ccccc4c4ccccc34)cc1)N=C[C@@H]1CCCN1C2=O")
-69.5

Turning to the following compound.
Given the compound c1ccc(-c2nnc(Nc3nnc(-c4ccccc4)s3)s2)cc1 , what is its reported growth?
100

====

System: SK-MEL-5 melanoma
assay procedure: NCI-60 one-dose screen, 48 h (100 = growth as untreated, 0 = no growth, -100 = all killed)
test parameters: 10 µM unless noted
The panel holds about 83,000 compounds, 20% with a hit somewhere; the sample as a whole holds those more often.
Rule for this label: Fulfilled means growth is less than 90%; Not fulfilled means growth is at least 90%.

Solved cases below.
>>> class_name("CCC(c1ccccc1)c1noc(CCN(CC)CC)n1 (stereo not given)")
"Not fulfilled"
>>> class_name("O=C(/C=C/c1cc2ccccc2[nH]c1=O)c1ccc(Cl)cc1")
"Fulfilled"
>>> class_name("O=c1ccn(C2OC(CO)C(O)C2F)c(=O)[nH]1 (stereo not given)")
"Not fulfilled"
>>> class_name("Nc1ccc(S(=O)(=O)Nc2ncccn2)cc1")
"Not fulfilled"
>>> class_name("COc1cc(C2NC(c3ccc(Cl)cc3)C(C)C(=NC(=O)c3cnccn3)C2C)cc(OC)c1OC (stereo not given)")
"Fulfilled"
>>> class_name("CCCCSc1cc(C)nc(N)n1")
"Not fulfilled"
>>> class_name("COc1ccc2c(c1)/C(=C\\c1c[nH]c3ccc(F)cc13)C(=O)N2")
"Not fulfilled"
>>> class_name("CCOC(=O)C1C(=O)OC2CCCCC21 (stereo not given)")
"Not fulfilled"

Lab note: confirm whether the reported growth for this molecule is below 90%, equality not counting. molecule: COc1ccc(-c2nnc(COc3ccc(NC(=O)Nc4cc(C(F)(F)F)cc(C(F)(F)F)c4)cc3F)o2)cc1
Fulfilled

In plain terms, does Cc1nn(-c2ccccc2)c2nc(Cl)c(/C=C/C(=O)c3ccccc3)c(-c3ccccc3)c12 come in under 90% for growth?
Not fulfilled

Lab note: growth threshold 90%. Does this molecule come in strictly under it? CCOC(=O)c1c(C)nc(C)c(C(=O)OCC)c1-c1cccnc1
Not fulfilled

Dear reviewer, please state whether COc1ccc2c(c1)C(=O)/C(=C/c1ccc([N+](=O)[O-])s1)O2 has growth strictly beneath 90%.
Fulfilled

Hello, is growth of the following molecule strictly smaller than 90%? Cc1nc(N)[nH]c(=O)c1C
Not fulfilled

====

Reported growth by item:
System: HCT-116 colon
assay procedure: NCI-60 one-dose screen, 48 h (100 = growth as untreated, 0 = no growth, -100 = all killed)
test parameters: 10 µM unless noted
This is part of a sample that, as a whole, favours compounds with a hit. Of some 83,000 tested, about 20% had one in any assay.
Give just the number in %; leave the unit off.

Consider the reported growth for these molecules:
>>> val("COc1ccc(-c2nnc(COc3ccc(NC(=O)Nc4cc(C(F)(F)F)cc(C(F)(F)F)c4)cc3F)o2)cc1")
2.49
>>> val("Nc1ccc(C2=NN(c3ccccc3)C(c3ccc(Cl)cc3)C2)cc1 (configuration not stated)")
-57.3
>>> val("COc1ccc2c(c1)C(=O)/C(=C/c1ccc([N+](=O)[O-])s1)O2")
-0.508

Recorded growth of C[C@@H]1CC[C@H]2[C@@H](C)C(O)O[C@@H]3O[C@]4(C)CC[C@@H]1[C@]32OO4 (some centres not stated) , please.
8.03

GET /values?readout=growth&item= O=C(/C=C/c1cccnc1)NCCCCC1CCCN(C(=O)c2ccccc2)C1 (configuration not stated)
7.85

# get_value(readout='growth', item= Fc1ccc(-c2nnc(/C=C/c3cn(-c4ccccc4)nc3-c3ccccc3)o2)cc1 )
57

Which growth value is on record for CC1=NN(c2ccccc2Cl)C(=O)/C1=C\c1cn(S(=O)(=O)c2ccc(C)cc2)c2ccccc12 ?
88.2

====

System: NCI-H226 lung
assay procedure: NCI-60 one-dose screen, 48 h (100 = growth as untreated, 0 = no growth, -100 = all killed)
test parameters: 10 µM unless noted
About 83,000 compounds went through this panel and 20% of them were active in at least one assay; those are over-represented in the sample as a whole.
Classify on growth using one (below 50%), two (50% to below 90%), three (90% or more)

Solved entries:
>>> class_name("O=C(Nc1ccncc1)C(=O)c1cn(S(=O)(=O)c2cccc(F)c2)c2ccccc12")
"two"
>>> class_name("N#Cc1ccc(NC(=O)Nc2ccc(Oc3ccc(NC(=O)Nc4ccc(C#N)cc4)cc3)cc2)cc1")
"one"
>>> class_name("CCC(C)CC(CC)NCCN1CCN(C(CC)CC(C)CC)C1=S (centres undefined)")
"one"
>>> class_name("O=C1/C(=N/O)CCc2ccccc21")
"three"
>>> class_name("O=c1c(O)cccn1CCCNCCCN(CCCn1cccc(O)c1=O)CCCn1cccc(O)c1=O")
"three"

// return the class label for OC(CCC(O)(c1ccccc1)c1ccccc1)(c1ccccc1)c1ccccc1
two

GET /class?item= CCN(CC)c1ccc(N=Nc2cc(Cl)ccc2Cl)c(NC(=O)CCC(=O)O)c1
three

Classify this compound: C=C(C)[C@H]1CC/C(C)=C/CC[C@]2(C)O[C@H]2CC/C(C=O)=C\C1O (some centres undefined)
three

State the band of COc1ccc(/C=N\Nc2ccc([N+](=O)[O-])cn2)cc1OC
one

The entry to classify is CN1CCN(CC(=O)Nc2nc3c(s2)Nc2cc(Cl)c(Cl)cc2NC3=O)CC1 ; which class holds it?
three

Assign a category based on measured growth for Cc1nn(-c2ccccc2)c2ncc3c(c12)C(=O)N(Cc1ccccc1)C3=O and give only the class name.
one

In plain terms, what class is Cc1[nH]n(C(N)=S)c(=O)c1N=Nc1ccc(F)c(Cl)c1 ?
two

Sort into band: CCC(CCC(C)C1CCC2C3CC=C4CC(O)CCC4(C)C3CCC12C)C(C)C (centres undefined) (tested in a mixture with another compound)
three

Band assignment needed for COc1ccc(C2CC(c3ccc(OC)c(OC)c3)=NN2C(=O)c2cc(OC)c(OC)c(OC)c2)c(OC)c1 (centres undefined) please.
two

# bin lookup: classify O=C1NCN(c2ccccc2)C12CCN(CCCC(c1ccc(F)cc1)c1ccc(F)cc1)CC2 by its growth
three

Which band does ClC1=C(Cl)C(Cl)=C(Cl)C1=C/C=C/c1ccccc1 fall in?
one

Exercise: read the entry O=C1N(C2CCCCC2)C(=O)N1C1CCCCC1 and state which class it falls under.
one

Looking at CCC1=C(c2ccc(OC)cc2)C(C)(C)Oc2c1ccc(O)c2CN1CCCC1 , which class would you pick?
one
